%Inh: recorded values
- Tested on: WNK1
- SETUP CONDITIONS: concentration: 1 μM, replicates: in singlicate; n = 1;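 further: KINOMEscan kinase panel screen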
MEASURED PROPERTY: %Inh

{"COMPOUND": "CCCCc1nn2ncccc2c1-c1ccnc(Nc2ccc(N3CCN(C)CC3)cc2)n1", "MEASURED PROPERTY": "%Inh", "RESULT": "11%"}
{"COMPOUND": "COc1cccc(-c2ccc3c(NC(=O)C4CC4)n[nH]c3n2)c1", "MEASURED PROPERTY": "%Inh", "RESULT": "45%"}
{"COMPOUND": "COC(=O)Nc1nc2cc(Oc3ccc(NC(=O)Nc4cc(C(F)(F)F)ccc4F)cn3)ccc2[nH]1.Cl.Cl", "MEASURED PROPERTY": "%Inh", "RESULT": "6%"}
{"COMPOUND": "Nc1ncc(-c2cccnc2)c2scc(-c3ccc4c(c3)CCN4C(=O)Cc3ccccc3)c12", "MEASURED PROPERTY": "%Inh", "RESULT": "17%"}
{"COMPOUND": "COc1ccc(CNC(=O)NC2CCN(c3ccnc(Nc4ccc(F)cc4)n3)CC2)cc1", "MEASURED PROPERTY": "%Inh", "RESULT": "0%"}
{"COMPOUND": "O=C(Nc1cccc(-c2nn3ccccc3c2-c2ccnc(Nc3cccc(C(F)(F)F)c3)n2)c1)c1c(F)cccc1F", "MEASURED PROPERTY": "%Inh", "RESULT": "5%"}
{"COMPOUND": "C[C@@H]1CC[C@@H](C(=O)Nc2ccccc2)CN1c1cc(-c2ccc3c(N)n[nH]c3c2)nc(N)n1", "MEASURED PROPERTY": "%Inh", "RESULT": "0%"}
{"COMPOUND": "COc1cccc(C2=C(Nc3ccc(Cl)c(C(=O)O)c3)C(=O)NC2=O)c1", "MEASURED PROPERTY": "%Inh", "RESULT": "100%"}

* * *

Reported %Inh values follow for various compounds
- System: ACVR1
- SETUP CONDITIONS: concentration: 1 μM, replicates: in singlicate; n = 1
MEASURED PROPERTY: %Inh (%)

{"COMPOUND": "CC(C)(C)c1ccc2nccc(Nc3cccc(O)c3)c2c1 [GW856795]", "UNIT SPEC": "%", "RESULT": 8}
{"COMPOUND": "FC(F)(F)c1ccc(/C=C/c2cncnc2Nc2ccc3[nH]c(Cc4ccccc4)nc3c2)cc1 [GW709199]", "UNIT SPEC": "%", "RESULT": 0}
{"COMPOUND": "c1ccc(-c2cnc3nccnn23)cc1 [AH20685]", "UNIT SPEC": "%", "RESULT": 17}
{"COMPOUND": "CCS(=O)(=O)c1ccc(OC)c(Nc2nccc(-c3c(-c4cccc(NC(=O)c5c(F)cccc5F)c4)nn4ncccc34)n2)c1 [GSK326180]", "UNIT SPEC": "%", "RESULT": 10}
{"COMPOUND": "Nc1n[nH]c2cnc(-c3ccccc3)cc12 [SB-642124]", "UNIT SPEC": "%", "RESULT": 41}

* * *

Entries and their %Inh values follow.
- System: PCTK3
- Construct: gene CDK18
- SETUP CONDITIONS: concentration: 1 μM, replicates: in singlicate; n = 1
MEASURED PROPERTY: %Inh (%)

{"COMPOUND": "Cc1ccc(C)c(NC(=O)NC2CCN(c3ccnc(Nc4ccc(F)cc4)n3)C2)c1 (stereo not shown)", "MEASURED PROPERTY": "%Inh", "RESULT": 10}
{"COMPOUND": "COc1cc(Nc2nccc(-c3c(-c4cccc(NC(=O)c5c(F)cccc5F)c4)nn4ncccc34)n2)cc(OC)c1OC", "MEASURED PROPERTY": "%Inh", "RESULT": 5}
{"COMPOUND": "COc1cc(Nc2nccc(N3CCC(NC(=O)c4cc5ccccc5s4)C3)n2)cc(OC)c1OC (stereo not shown)", "MEASURED PROPERTY": "%Inh", "RESULT": 20}
{"COMPOUND": "Cl.c1ccc(-c2ccc3c(Nc4ccc5[nH]ncc5c4)ccnc3c2)nc1", "MEASURED PROPERTY": "%Inh", "RESULT": 20}
{"COMPOUND": "CN1CCN(Cc2cccc(-c3ccc4c(Nc5ccc(Oc6ccccc6)cc5)ccnc4c3)c2)CC1", "MEASURED PROPERTY": "%Inh", "RESULT": 20}
{"COMPOUND": "Nc1ncc(-c2cccnc2)c2scc(-c3ccc4c(c3)CCN4C(=O)Cc3ccccc3)c12", "MEASURED PROPERTY": "%Inh", "RESULT": 18}
{"COMPOUND": "O=C(Nc1cccc(-c2nn3ccccc3c2-c2ccnc(Nc3cccc(F)c3)n2)c1)c1c(F)ccc(F)c1Cl", "MEASURED PROPERTY": "%Inh", "RESULT": 9}
{"COMPOUND": "Oc1cc(Nc2ccnc3cc(I)ccc23)ccc1F", "MEASURED PROPERTY": "%Inh", "RESULT": 15}
{"COMPOUND": "O=C(NC1CCN(c2ccnc(Nc3ccc(F)cc3)n2)C1)c1cc2ccccc2s1 (stereo not shown)", "MEASURED PROPERTY": "%Inh", "RESULT": 32}
{"COMPOUND": "CN(c1ccc(NC(=O)Nc2cc(C(F)(F)F)ccc2F)cc1)c1ccnc(Nc2ccc(S(N)(=O)=O)cc2)n1", "MEASURED PROPERTY": "%Inh", "RESULT": 95.5}
{"COMPOUND": "COc1cccc(-c2ccc3c(NC(=O)C4CC4)n[nH]c3n2)c1", "MEASURED PROPERTY": "%Inh", "RESULT": 30}
{"COMPOUND": "Cl.Cl.NCC(C(=O)Nc1cc(Br)c(-c2ccnc3[nH]ccc23)s1)c1ccccc1 (stereo not shown)", "MEASURED PROPERTY": "%Inh", "RESULT": 0}
{"COMPOUND": "CN1CCN(CCCNc2nccc(-c3c(-c4ccc(F)cc4)nn4cc(C(F)(F)F)ccc34)n2)CC1", "MEASURED PROPERTY": "%Inh", "RESULT": 12}

* * *

- Tested on: BIKE
- Construct: gene BMP2K
- SETUP CONDITIONS: concentration: 1 μM, replicates: in singlicate; n = 1

{"COMPOUND": "CN(C)S(=O)(=O)c1cc(-c2ccc3nccc(-c4cccc(S(N)(=O)=O)c4)c3c2)cnc1N", "%Inh (%)": 22}
{"COMPOUND": "Cc1ccc(F)c(C(=O)Nc2cccc(-c3nn4ccccc4c3-c3ccnc(Nc4cccc(F)c4)n3)c2)c1F", "%Inh (%)": 35}
{"COMPOUND": "COc1cccc(C2=C(Nc3ccc(Cl)c(C(=O)O)c3)C(=O)NC2=O)c1", "%Inh (%)": 16}
{"COMPOUND": "Cn1cc(-c2ccc3c(c2)CCN3C(=O)Cc2cccc(F)c2)c2c(N)ncnc21", "%Inh (%)": 10}
{"COMPOUND": "CCn1c(-c2nonc2N)nc2c(C#CC(C)(C)O)ncc(OCCCCN)c21.O=C(O)C(F)(F)F.O=C(O)C(F)(F)F", "%Inh (%)": 26}
{"COMPOUND": "Cn1cc(-c2[nH]c3cc(NC(=O)[C@H](N)C4CCCCC4)cc4c3c2C=NNC4=O)cn1", "%Inh (%)": 100}
{"COMPOUND": "COc1cc(Nc2ncc3c(C)nc(-c4cc5ccccc5[nH]4)n3n2)cc(OC)c1OC", "%Inh (%)": 9}
{"COMPOUND": "Nc1n[nH]c2cnc(-c3ccccc3)cc12", "%Inh (%)": 99.4}
{"COMPOUND": "O=C(Nc1n[nH]c2nc(-c3ccc(O)cc3)ccc12)C1CC1", "%Inh (%)": 32}
{"COMPOUND": "CN(c1ccc(NC(=O)Nc2cc(C(F)(F)F)ccc2F)cc1)c1ccnc(Nc2ccc(S(N)(=O)=O)cc2)n1", "%Inh (%)": 26}
{"COMPOUND": "CN1CCN(Cc2cccc(-c3ccc4c(Nc5ccc(Oc6ccccc6)cc5)ccnc4c3)c2)CC1", "%Inh (%)": 1}
{"COMPOUND": "Cl.Cl.NCC(NCc1ccc(-c2ccnc3[nH]ccc23)s1)c1ccccc1 (centres unmarked)", "%Inh (%)": 100}
{"COMPOUND": "c1ccc(-c2cnc3nccnn23)cc1", "%Inh (%)": 0}
{"COMPOUND": "Cc1occc1-c1ncc(OC[C@@H](N)Cc2c[nH]c3ccccc23)cc1-c1ccc2[nH]nc(C)c2c1.O=C(O)C(F)(F)F", "%Inh (%)": 90.5}
{"COMPOUND": "CN(C)Cc1ccc(-c2ccc3c(Nc4ccc(Oc5ccccn5)cc4)ccnc3c2)o1", "%Inh (%)": 17}
{"COMPOUND": "CNC(=O)c1ccccc1Nc1nc(Nc2ccc(N3CCOCC3)cc2)ncc1Cl.Cl", "%Inh (%)": 100}
{"COMPOUND": "CC(C)(C)c1ccc2nccc(Nc3cccc(O)c3)c2c1", "%Inh (%)": 0}
